Values compiled from PubChem BioAssay.

experiment: inhibitors of mutant huntingtin aggregation, primary screen, imaging, exon1htt(103Q)mCFP cells, high-content imaging (AID 483); settings: exon1htt(103Q)mCFP cell line, aggregate imaging, at 2 µM; hits give high values;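 note: compound exposure lasted 3 days before fixation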
Threshold rule: inhibition of aggregation greater than or equal to -10% is Fulfilled; below that, Not fulfilled.

# compound, answer_label
records = [
    ("COc1ccccc1C(=O)N1CCN(C(=O)COc2cccc(C)c2)CC1", "Fulfilled"),
    ("CN1CCN(CC#CCC(O)(c2ccccc2)C2CCCC2)CC1 (stereo unspecified)", "Fulfilled"),
    ("CCCOc1cccc(C(=O)Nc2cc(NC(=O)c3ccco3)ccc2OC)c1", "Fulfilled"),
    ("CCn1cc(C2=NCC(C)O2)c2ccccc21 (stereo unspecified)", "Not fulfilled"),
    ("CCN(CC)S(=O)(=O)c1ccc(NC2CCCc3ccccc32)nc1 (stereo unspecified)", "Fulfilled"),
    ("CC(CCc1ccco1)NC(=O)Cn1ncc2c1-c1ccccc1OC2 (stereo unspecified)", "Not fulfilled"),
    ("CCCc1cc(-n2ccnc2)n2c(nc3ccccc32)c1C#N", "Not fulfilled"),
    ("COc1cc(C2c3c(oc4c(C)cc(C)cc4c3=O)C(=O)N2Cc2cccnc2)ccc1O (stereo unspecified)", "Fulfilled"),
    ("COc1ccc(C(=O)Nn2c(C3CCC3)nc3ccccc3c2=O)c(OC)c1", "Not fulfilled"),
    ("CCCC(=O)NCCc1cc2c(C)ccc(C)c2[nH]c1=O", "Fulfilled"),
    ("O=C(CCNS(=O)(=O)c1cccc2nsnc12)NCc1cccs1", "Not fulfilled"),
]

###

assay: inhibitors of E-selectin induction by TNFa, primary screen, imaging, HUVEC, immunofluorescence, MLSMR starter and 10KST1 sets (AID 487); settings: HUVEC TNFalpha-induced E-selectin immunofluorescence imaging, at 2 µM; hits give high values;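 note: signal is fraction of cell area covered by stained E-selectin grains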
Decide by inhibition: equal to or exceeding -20% means 1, less means -1.

# compound, answer_label
measured = [
    ("Cc1ccc(S(=O)(=O)c2cc3c(=O)n4ccccc4nc3n(CC3CCCO3)c2=N)cc1C (stereo unspecified)", 1),
    ("O=C(CSc1nnc2c3cc(F)ccc3nc(-c3ccccc3)n12)N1CCOCC1", -1),
    ("C=CCn1c(=N)c(C(=O)OCC)cc2c(=O)n3cccc(C)c3nc21", -1),
    ("Cc1ccc(S(=O)(=O)N(CC(O)CN2CCOCC2)c2cc(Cl)ccc2Cl)cc1 (stereo unspecified)", -1),
    ("c1ccc2c(N3CCCCC3)nc(N3CCCCC3)nc2c1", 1),
    ("O=C(NCc1ccco1)c1cc2cc3ccc(Cl)cc3nc2o1", -1),
]

###

experiment: inhibitors of Sendai virus-induced IRF3 signaling, primary screen, TLR/RLR signaling modifier project, cell-based, Sendai virus stimulus, luciferase, 10K MLSCN set (AID 602276); details: HEK293 RL24 IRF3 luciferase reporter, at 10 µM, hits give high values;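 note: firefly luciferase from ISG56 promoter only with Renilla not read in this screen; 0% = Sendai virus plus DMSO and 100% = medium plus DMSO without virus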
Quick list: inhibition per entry.
readout_type: inhibition (%)

# molecule, measured_result
records = [
    ("Cc1nnc(SCC(=O)Nc2sc3c(c2C#N)CCCC3)[nH]c1=O", 8.57),
    ("O=C(CC1Oc2ccc(Cl)cc2NC1=O)NC1CCCCCC1 (stereo unspecified)", 8.85),
    ("CCOC(=O)c1ccccc1NC(=O)CSc1nccn1C", 8.57),
    ("CN(C)c1ccc(CNCCC2(O)CCOC(C)(C)C2)cc1 (stereo unspecified)", 0.927),
    ("O=C(CCc1ccccc1)Nc1ccncc1", -2.19),
    ("CCc1nc(NCCCN2CCOCC2)c2oc3ccccc3c2n1", 17.6),
    ("O=C(CCCOc1ccccc1)N1CCN(c2ccccn2)CC1", 2.47),
    ("O=C(CSc1nnnn1-c1ccc(Cl)cc1)NC(=O)Nc1ccc2c(c1)OCCO2", -24.8),
    ("C=CCSc1nc(N)c2c(C)c(C)sc2n1", -7.96),
    ("Cc1ccc(-c2nnn(CC(=O)N(Cc3ccco3)C(C(=O)NC(C)(C)C)c3cccs3)n2)o1 (stereo unspecified)", 9.52),
    ("CCN1CCN(c2nc3c(c(=O)[nH]c(=O)n3C)n2CCSc2nc3ccccc3s2)CC1", 12.2),
]
